Source listed as patent US10457654B2.

Here, each record is paired with measured IC50 data.
- target_under_test: hNav1.7 (Homo sapiens (Human), UniProt Q15858)
- method_description: Tritiated compound binding to membranes from cells expressing hNav1.7 and the β1 subunit, competitive binding (LBA, Ex. 243A)
- condition_parameters: 100 pM [3H]compound, 18 h, room temperature; read-out: Nav1.7 LBA (Ex. 243A) IC50
- Sequence (Q15858 whole entry, looked up): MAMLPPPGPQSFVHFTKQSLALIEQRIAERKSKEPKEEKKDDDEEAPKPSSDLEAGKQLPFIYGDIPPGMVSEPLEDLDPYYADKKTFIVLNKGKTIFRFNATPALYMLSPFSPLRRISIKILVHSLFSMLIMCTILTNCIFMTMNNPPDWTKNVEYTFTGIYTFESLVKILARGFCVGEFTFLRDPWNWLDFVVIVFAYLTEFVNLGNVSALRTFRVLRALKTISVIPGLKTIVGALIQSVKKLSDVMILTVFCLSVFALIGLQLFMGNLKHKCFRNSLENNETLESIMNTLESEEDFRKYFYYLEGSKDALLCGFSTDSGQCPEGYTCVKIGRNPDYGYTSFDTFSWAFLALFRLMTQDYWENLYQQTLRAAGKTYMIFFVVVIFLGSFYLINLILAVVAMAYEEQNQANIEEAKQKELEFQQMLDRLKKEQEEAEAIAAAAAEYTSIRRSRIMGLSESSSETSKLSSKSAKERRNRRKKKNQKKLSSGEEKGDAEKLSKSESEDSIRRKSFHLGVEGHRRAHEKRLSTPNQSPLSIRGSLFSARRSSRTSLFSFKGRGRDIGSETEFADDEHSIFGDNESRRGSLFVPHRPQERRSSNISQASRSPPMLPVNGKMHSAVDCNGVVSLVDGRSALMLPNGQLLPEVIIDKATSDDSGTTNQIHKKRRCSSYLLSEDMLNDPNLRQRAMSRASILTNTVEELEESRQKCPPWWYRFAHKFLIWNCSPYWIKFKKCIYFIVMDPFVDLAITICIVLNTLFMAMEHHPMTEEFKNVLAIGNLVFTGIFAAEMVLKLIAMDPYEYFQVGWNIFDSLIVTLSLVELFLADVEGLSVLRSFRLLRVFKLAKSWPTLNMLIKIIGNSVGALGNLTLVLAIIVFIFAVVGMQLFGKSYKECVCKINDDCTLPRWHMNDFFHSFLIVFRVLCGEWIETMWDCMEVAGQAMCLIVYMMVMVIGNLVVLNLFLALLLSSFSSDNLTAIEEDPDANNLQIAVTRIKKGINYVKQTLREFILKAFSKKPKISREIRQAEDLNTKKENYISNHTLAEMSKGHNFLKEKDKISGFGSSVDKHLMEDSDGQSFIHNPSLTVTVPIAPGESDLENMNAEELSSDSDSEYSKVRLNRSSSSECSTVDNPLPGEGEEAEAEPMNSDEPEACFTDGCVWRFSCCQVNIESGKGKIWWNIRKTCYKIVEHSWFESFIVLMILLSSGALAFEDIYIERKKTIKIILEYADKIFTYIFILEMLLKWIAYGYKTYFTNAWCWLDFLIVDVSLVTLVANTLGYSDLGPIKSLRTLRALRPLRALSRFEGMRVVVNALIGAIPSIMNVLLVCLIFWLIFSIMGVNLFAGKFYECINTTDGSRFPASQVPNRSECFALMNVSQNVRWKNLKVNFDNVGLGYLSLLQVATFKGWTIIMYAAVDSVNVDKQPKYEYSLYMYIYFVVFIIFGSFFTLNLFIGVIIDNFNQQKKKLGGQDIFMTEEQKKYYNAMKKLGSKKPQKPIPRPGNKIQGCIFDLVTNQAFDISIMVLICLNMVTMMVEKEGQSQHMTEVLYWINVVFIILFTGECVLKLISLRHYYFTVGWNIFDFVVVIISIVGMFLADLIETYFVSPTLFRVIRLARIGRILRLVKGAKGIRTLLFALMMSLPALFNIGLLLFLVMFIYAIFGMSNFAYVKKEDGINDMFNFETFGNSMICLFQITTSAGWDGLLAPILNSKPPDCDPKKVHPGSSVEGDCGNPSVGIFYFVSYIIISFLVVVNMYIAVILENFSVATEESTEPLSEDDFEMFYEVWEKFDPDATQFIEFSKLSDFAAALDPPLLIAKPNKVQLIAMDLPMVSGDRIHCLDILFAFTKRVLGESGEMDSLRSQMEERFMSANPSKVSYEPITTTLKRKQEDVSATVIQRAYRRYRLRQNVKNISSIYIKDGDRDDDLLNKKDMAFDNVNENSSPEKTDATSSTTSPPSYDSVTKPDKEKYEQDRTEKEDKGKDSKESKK
- Sequence (Q07699 whole entry partner, looked up): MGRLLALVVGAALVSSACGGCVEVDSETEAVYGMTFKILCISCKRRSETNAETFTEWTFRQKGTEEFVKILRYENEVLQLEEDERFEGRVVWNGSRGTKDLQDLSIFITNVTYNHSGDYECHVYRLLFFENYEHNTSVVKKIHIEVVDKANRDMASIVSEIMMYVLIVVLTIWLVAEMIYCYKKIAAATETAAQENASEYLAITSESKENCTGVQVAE
Structures can show the parent of a compound that is named as a salt.
metric_name: IC50 (nM)

[
  {
    "compound": "CN(CC1CC1)[C@H]1CCCC[C@@H]1Nc1cc(F)c(S(=O)(=O)Nc2nccs2)cc1Cl",
    "reading_unit": "nM",
    "assay_value": 163
  },
  {
    "compound": "CN(CCF)[C@H]1CCCC[C@@H]1Nc1cc(F)c(S(=O)(=O)Nc2nccs2)cc1Cl [Example 37, formate]",
    "reading_unit": "nM",
    "assay_value": 2.76
  },
  {
    "compound": "CN[C@H]1CCCC[C@@H]1Nc1cc(F)c(S(=O)(=O)Nc2nccs2)cc1Br [Example 50, formate]",
    "reading_unit": "nM",
    "assay_value": 58.4
  },
  {
    "compound": "CN(C)[C@H]1C[C@H](C(F)(F)F)CC[C@@H]1Nc1cc(F)c(S(=O)(=O)Nc2nccs2)cc1Cl",
    "reading_unit": "nM",
    "assay_value": 43.2
  },
  {
    "compound": "O=S(=O)(Nc1ccncn1)c1cc(Cl)c(N[C@H]2CCCC[C@@H]2N2CCCC2)cc1F",
    "reading_unit": "nM",
    "assay_value": 198
  },
  {
    "compound": "CN(C)[C@@H]1CC[C@@H](c2cccc(C(F)(F)F)c2)C[C@H]1Nc1cc(F)c(S(=O)(=O)Nc2nccs2)cc1Cl",
    "reading_unit": "nM",
    "assay_value": 64.7
  },
  {
    "compound": "CCN[C@H]1CCCC[C@@H]1Nc1cc(F)c(S(=O)(=O)Nc2cccc(F)n2)cc1Cl",
    "reading_unit": "nM",
    "assay_value": 19.7
  }
]

* * *

- target_under_test: hNav1.7 (Homo sapiens (Human))
- method_description: Patch voltage clamp electrophysiology assay (EP), Syncropatch 384PE, CHO cells expressing Nav1.7
- Format: cell-based
- condition_parameters: holding potential -50 mV; […] compound incubation; read-out: EP_SP hNav1.7 (Ex. 243B) IC50
- Sequence (Q15858 other isoform, or with tags, fused parts or gaps): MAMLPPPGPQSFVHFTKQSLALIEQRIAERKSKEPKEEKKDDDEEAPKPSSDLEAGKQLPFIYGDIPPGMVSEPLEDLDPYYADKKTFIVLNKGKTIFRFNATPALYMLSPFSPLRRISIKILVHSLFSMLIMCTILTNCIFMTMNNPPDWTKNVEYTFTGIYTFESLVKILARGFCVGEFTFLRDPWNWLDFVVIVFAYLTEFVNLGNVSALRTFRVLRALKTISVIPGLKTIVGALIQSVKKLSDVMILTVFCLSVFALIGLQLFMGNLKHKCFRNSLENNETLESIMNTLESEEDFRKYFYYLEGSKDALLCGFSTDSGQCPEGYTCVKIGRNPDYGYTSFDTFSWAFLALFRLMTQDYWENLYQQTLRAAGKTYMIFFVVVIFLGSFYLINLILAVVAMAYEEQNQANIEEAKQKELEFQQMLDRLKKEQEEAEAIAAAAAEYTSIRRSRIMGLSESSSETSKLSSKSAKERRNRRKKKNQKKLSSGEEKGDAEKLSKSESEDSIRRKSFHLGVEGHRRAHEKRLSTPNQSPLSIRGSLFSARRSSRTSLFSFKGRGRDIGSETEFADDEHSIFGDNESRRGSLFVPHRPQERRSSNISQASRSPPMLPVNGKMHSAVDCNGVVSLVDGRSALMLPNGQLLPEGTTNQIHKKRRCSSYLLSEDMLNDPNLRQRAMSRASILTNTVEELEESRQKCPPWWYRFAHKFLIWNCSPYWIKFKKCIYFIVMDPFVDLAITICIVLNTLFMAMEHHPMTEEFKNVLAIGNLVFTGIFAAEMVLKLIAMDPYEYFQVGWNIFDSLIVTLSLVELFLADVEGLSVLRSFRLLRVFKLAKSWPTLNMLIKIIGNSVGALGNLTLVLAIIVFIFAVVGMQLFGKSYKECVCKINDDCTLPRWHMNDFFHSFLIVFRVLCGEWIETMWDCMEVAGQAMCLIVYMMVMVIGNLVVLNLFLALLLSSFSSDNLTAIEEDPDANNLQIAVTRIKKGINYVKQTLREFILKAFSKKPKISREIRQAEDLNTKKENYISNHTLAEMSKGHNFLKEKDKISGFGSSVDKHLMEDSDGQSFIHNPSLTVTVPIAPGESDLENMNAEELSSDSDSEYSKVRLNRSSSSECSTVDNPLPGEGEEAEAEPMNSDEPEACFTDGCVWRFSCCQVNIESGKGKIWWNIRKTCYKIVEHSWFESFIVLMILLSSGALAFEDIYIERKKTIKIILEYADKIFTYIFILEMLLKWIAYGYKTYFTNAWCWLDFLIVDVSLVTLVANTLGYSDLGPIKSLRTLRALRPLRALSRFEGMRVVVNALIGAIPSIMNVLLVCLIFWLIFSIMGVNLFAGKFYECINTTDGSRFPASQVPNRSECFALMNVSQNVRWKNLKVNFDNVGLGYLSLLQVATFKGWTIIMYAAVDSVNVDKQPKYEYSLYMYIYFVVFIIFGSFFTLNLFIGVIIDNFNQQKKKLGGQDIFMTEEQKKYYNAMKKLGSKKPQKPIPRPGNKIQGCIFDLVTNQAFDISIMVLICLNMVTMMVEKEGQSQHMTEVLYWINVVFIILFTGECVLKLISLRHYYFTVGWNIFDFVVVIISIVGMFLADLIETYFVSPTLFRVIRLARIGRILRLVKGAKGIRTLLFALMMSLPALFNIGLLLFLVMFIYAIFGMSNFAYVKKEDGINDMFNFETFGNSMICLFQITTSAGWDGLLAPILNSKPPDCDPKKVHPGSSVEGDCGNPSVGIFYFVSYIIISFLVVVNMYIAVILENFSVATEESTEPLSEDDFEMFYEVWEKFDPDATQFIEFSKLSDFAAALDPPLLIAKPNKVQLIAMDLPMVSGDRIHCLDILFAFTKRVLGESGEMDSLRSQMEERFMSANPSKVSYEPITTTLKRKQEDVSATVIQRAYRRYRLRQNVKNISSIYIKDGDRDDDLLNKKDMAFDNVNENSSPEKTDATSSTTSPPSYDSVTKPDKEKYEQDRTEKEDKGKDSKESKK
pIC50: −log10 of the molar value. Where a name gives a salt, the structure may show the parent alone.

[
  {
    "molecule": "Cc1csc(NS(=O)(=O)c2cc(Cl)c(N[C@H]3CC[C@H](C(F)(F)F)C[C@@H]3N(C)C)cc2F)n1 [Example 171, formate]",
    "pIC50": 7.91
  },
  {
    "molecule": "O=S(=O)(Nc1ccncn1)c1cc(Cl)c(N[C@H]2CCCC[C@@H]2N2CC3CC3C2)cc1F (some centres unmarked)",
    "pIC50": 7.70
  },
  {
    "molecule": "CN(C)[C@H]1CCC(c2ccccc2F)C[C@@H]1Nc1cc(F)c(S(=O)(=O)Nc2nccs2)cc1Cl (stereo in doubt) [Example 174]",
    "pIC50": 7.30
  },
  {
    "molecule": "CN(C)[C@H]1C[C@@H](c2cccc(C(F)(F)F)c2)CC[C@@H]1Nc1cc(F)c(S(=O)(=O)Nc2ccncn2)cc1C1CCC1",
    "pIC50": 8.80
  },
  {
    "molecule": "CN(C[C@H](O)C1CC1)[C@H]1CCCC[C@@H]1Nc1cc(F)c(S(=O)(=O)Nc2nccs2)cc1Cl",
    "pIC50": 7.71
  },
  {
    "molecule": "CCCc1cccc([C@H]2CC[C@H](Nc3cc(F)c(S(=O)(=O)Nc4ccncn4)cc3Cl)[C@@H](N(C)C)C2)c1",
    "pIC50": 8.84
  },
  {
    "molecule": "CN(C1CN(C(=O)C2CC2)C1)[C@H]1CCCC[C@@H]1Nc1cc(F)c(S(=O)(=O)Nc2nccs2)cc1Cl",
    "pIC50": 7.91
  },
  {
    "molecule": "O=S(=O)(Nc1nccs1)c1cc(Cl)c(N[C@H]2CCCC[C@@H]2N2CCC(O)CC2)cc1F",
    "pIC50": 8.23
  },
  {
    "molecule": "CN(C)[C@H]1C[C@@H](c2cccc(C3CC3)c2)CC[C@@H]1Nc1cc(F)c(S(=O)(=O)Nc2ccncn2)cc1Cl",
    "pIC50": 9.03
  },
  {
    "molecule": "CN(C)[C@H]1CCC(c2cccc(C(F)(F)F)c2)C[C@@H]1Nc1cc(F)c(S(=O)(=O)Nc2ccncn2)cc1Cl (stereo in doubt) [Example 121]",
    "pIC50": 6.92
  },
  {
    "molecule": "CN(C)[C@H]1CC=CC[C@@H]1Nc1cc(F)c(S(=O)(=O)Nc2nccs2)cc1Cl [Example 141, formate]",
    "pIC50": 7.90
  },
  {
    "molecule": "CN(CC(O)C(F)F)[C@H]1CCCC[C@@H]1Nc1cc(F)c(S(=O)(=O)Nc2nccs2)cc1Cl (single isomer, unassigned) [Example 127]",
    "pIC50": 8.18
  },
  {
    "molecule": "CN(CCO)[C@H]1CCCC[C@@H]1Nc1cc(F)c(S(=O)(=O)Nc2nccs2)cc1Cl [Example 38, formate]",
    "pIC50": 8.51
  },
  {
    "molecule": "O=S(=O)(Nc1ccncn1)c1cc(Cl)c(N[C@H]2CCCC[C@@H]2N2CC3C(C2)C3(F)F)cc1F (some centres unmarked)",
    "pIC50": 7.92
  }
]
